# Tested on: LOX IMVI
# TEST SUMMARY: NCI tumour cell line growth inhibition, 48 h
Active and inactive are the calls of the source. No stated cut-off is given here; in the data, active = GI50 up to about 1.1 µM and inactive = higher.
MEASUREMENT TYPE: GI50

These solved cases illustrate the format of a correct answer.
Nc1ccc(I)cn1	> 100 µM (inactive)
COc1cccc2ccc3c(c12)C(=O)OC31CCc2c(C)cccc21 (stereo unspecified)	14.2 µM (inactive)
Cc1cc(O)nc2cc3oc4ccccc4c3cc12	> 28.2 µM (inactive)
O=S(=O)(SCc1ccccc1)C(c1ccccc1)c1ccccc1	30.4 µM (inactive)
O=c1c(O)c(-c2ccc(O)c(O)c2)oc2cc(O)cc(O)c12	18.9 µM (inactive)

Hello, I would appreciate it if you could give GI50 for each entry below.
1. COC(=O)C12C3C4C5(C(=O)OC)C(C1C35C(=O)N(C(C)C)C(C)C)C42C(=O)N(C(C)C)C(C)C (stereo unspecified)
2. CCOC(=O)CNC(=O)c1nc[nH]c1/N=N/N(C)C

> 27.1 µM (inactive)
> 100 µM (inactive)
